Every entry's value here was drawn from ChEMBL document CHEMBL5360519.

targetDesc: N(G),N(G)-dimethylarginine dimethylaminohydrolase 1 (Homo sapiens, UniProt O94760)
Sequence (O94760 whole entry): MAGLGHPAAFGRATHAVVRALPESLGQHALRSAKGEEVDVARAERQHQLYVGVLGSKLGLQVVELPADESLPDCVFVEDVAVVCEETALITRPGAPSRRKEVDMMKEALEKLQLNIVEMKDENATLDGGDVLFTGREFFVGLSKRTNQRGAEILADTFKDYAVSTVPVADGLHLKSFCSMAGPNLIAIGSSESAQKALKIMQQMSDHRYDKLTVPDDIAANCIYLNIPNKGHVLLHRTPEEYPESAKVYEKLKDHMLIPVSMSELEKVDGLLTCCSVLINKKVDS
assaySummary: Inhibition of human DDAH1 using SMTC as substrate by fluorimetric assay
recordedEndpoint: IC50 (µM)
Your answer is read as µM, so omit the unit and give the number.

Qu. Value lookup for IC50; key = N=C1Sc2ccccc2C2=NCCCN12
Ans. 9

* * *

targetDesc: UniProt O94760
assaySummary: Inhibition of human DDAH1 using [14C]-L-NMMA as substrate assessed as reduction in [14C]-citrulline conversion measured after 1 hrs by scintillation counting analysis
recordedEndpoint: IC50 (µM)
Your answer is read as µM, so omit the unit and give the number.

Qu. Value lookup for IC50; key = C/N=C(\N)NCC[C@H](N)C(=O)O
Ans. 250
